Test system: UO-31
Assay: NCI tumour cell line growth inhibition, 48 h
The source made the active and inactive calls. Rule as the data show it: active = GI50 up to about 1.1 µM and inactive = higher. Non-standard residues stand in square brackets, D forms with d. Residues, ends and D or L forms follow the SMILES beside them. ξ: configuration not given here. *: point of attachment. ξNMeF = CNC(Cc1ccccc1)C(=O)O; NMeV = CN[C@H](C(=O)O)C(C)C; Boc = CC(C)(C)OC(=O)*; OBn = c1ccc(CO*)cc1
readout-label: GI50

input: Fill in the blank: the reported GI50 of NC1CC(=O)c2csc(Br)c21 (configuration not stated) is ____.
output: 16 µM (inactive)

input: // next record CC1(C)CCCCCCC2CC2CCCCCC(C)(C)C1=O (configuration not stated)
output: > 100 µM (inactive)

input: // next record CC(=O)c1ccc(N2C(=O)C3c4[nH]c5ccccc5c4C4CCC(C(C)(C)C)CC4C3C2=O)cc1 (configuration not stated)
output: 43.5 µM (inactive)

input: // next record CCSCCC(N)C(=O)O (configuration not stated)
output: > 100 µM (inactive)

input: // next record Cc1ccc(S(=O)(=O)NNC(=O)c2sc(-c3nc(C)c(C(=O)NNS(=O)(=O)c4ccc(C)cc4)s3)nc2C)cc1
output: 28.8 µM (inactive)

input: // next record COP1(=O)Oc2ccccc2C(=O)C(C(F)(F)F)(C(F)(F)F)O1 (configuration not stated)
output: > 100 µM (inactive)

input: // next record Cc1c(C(=O)CC(=O)C(=O)Nc2cccc(C(F)(F)F)c2)[n+]([O-])c2ccccc2[n+]1[O-]
output: 16.3 µM (inactive)

input: // next record O=C1c2cccc3cc([N+](=O)[O-])cc(c23)C(=O)N1CCCN1CCN(CCCNc2ccc3ncn4c5ccccc5c(=O)c2c34)CC1
output: < 0.005 µM (active)

input: // next record COc1cccc2c1C(=O)c1ccc3cc(CCl)cc(O)c3c1C2=O
output: 0.336 µM (active)

input: // next record CC(C)CCC1(O)O[C@H]2C[C@H]3[C@@H]4CCC5CC(=O)C=C[C@]5(C)[C@H]4CC[C@]3(C)[C@H]2[C@@H]1C (some centres not stated)
output: 16.6 µM (inactive)

input: // next record Cc1cc(O)nc(NN2C(Cl)C(=O)C2c2ccc([N+](=O)[O-])cc2)n1 (configuration not stated)
output: 13.9 µM (inactive)

input: // next record C[C@]12CC[C@H]3[C@@H](CCC4=CC(=O)CC[C@@]43C)[C@@H]1CC[C@@H]2OC(=O)c1cccc2c(=O)c3ccccc3[nH]c12
output: > 100 µM (inactive)

input: // next record CO/N=C1\CC(NC(=O)CNC(=O)OC(C)(C)C)c2ccsc21 (configuration not stated)
output: > 100 µM (inactive)

input: // next record CC(C)[C@@H](C(=O)N(C)[C@H](C(=O)N1CCC[C@H]1C(=O)OCc1ccccc1)C(C)C)N(C)C(=O)C(Cc1ccccc1)N(C)C(=O)[C@H](NC(=O)OC(C)(C)C)C(C)C (some centres not stated) (Boc-[dV][ξNMeF][NMeV][NMeV]P-OBn)
output: > 31.6 µM (inactive)

input: // next record CSC(C1c2ccccc2N(C)C2=NC(=O)N(C)C(=O)C21Cl)S(=O)(=O)c1ccc(C)cc1 (configuration not stated)
output: 79.8 µM (inactive)

input: // next record COC1CCC2C(NS(=O)(=O)c3ccc(C)cc3)CCCC2O1.Cc1ccc(S(=O)(=O)NC(C)(C)C=O)cc1 (configuration not stated)
output: 15 µM (inactive)

input: // next record CN(C)c1ccc(/C=C/c2ccc(/C=C/c3ccc(N(C)C)cc3)cc2)cc1
output: 41.2 µM (inactive)
